molecular target: Thyroid hormone receptor alpha (Homo sapiens, UniProt P10827)
pIC50: −log10 of the molar value.
Categories are assigned from the measured pIC50 using these intervals: band 1 (below 7), band 2 (7 to below 8), band 3 (8 or more)

smiles.text	target.or.test.system	class.label
Cc1c(O)ccc2c(-c3c(Cl)cc(NC(=O)O)cc3Cl)cccc12	Thyroid hormone receptor alpha (Homo sapiens, UniProt P10827)	band 2
O=C(O)CNc1cc(Cl)c(-c2cccc3c(Br)c(O)ccc23)c(Cl)c1	Thyroid hormone receptor alpha (Homo sapiens, UniProt P10827)	band 2
O=C(O)CC(=O)Nc1cc(Cl)c(-c2cccc3c(Br)c(O)ccc23)c(Cl)c1	Thyroid hormone receptor alpha (Homo sapiens, UniProt P10827)	band 3
O=C(O)Cc1cc(Cl)c(Oc2ccc(O)cc2)c(Cl)c1	Thyroid hormone receptor alpha (Homo sapiens, UniProt P10827)	band 1
O=C(O)C(=O)Nc1cc(Cl)c(-c2cccc3c(Br)c(O)ccc23)c(Cl)c1	Thyroid hormone receptor alpha (Homo sapiens, UniProt P10827)	band 3

###

Molecular target: Thyroid hormone receptor beta (Homo sapiens, UniProt P10828)
Sequence (P10828 whole entry): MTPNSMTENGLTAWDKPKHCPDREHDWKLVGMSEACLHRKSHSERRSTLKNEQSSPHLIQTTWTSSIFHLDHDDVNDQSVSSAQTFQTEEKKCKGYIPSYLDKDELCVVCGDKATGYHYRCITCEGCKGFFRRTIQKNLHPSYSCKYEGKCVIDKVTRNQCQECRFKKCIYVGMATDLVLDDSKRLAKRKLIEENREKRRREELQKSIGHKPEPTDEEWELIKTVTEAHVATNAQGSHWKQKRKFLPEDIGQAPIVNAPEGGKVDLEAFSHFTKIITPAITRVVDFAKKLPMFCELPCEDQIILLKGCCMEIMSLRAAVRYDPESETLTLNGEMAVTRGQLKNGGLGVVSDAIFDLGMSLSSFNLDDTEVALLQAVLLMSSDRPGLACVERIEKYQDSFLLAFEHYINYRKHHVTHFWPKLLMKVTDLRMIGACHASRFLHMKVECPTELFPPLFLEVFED

smiles.text	IC50, nM
O=C(O)CC(=O)Nc1cc(Cl)c(-c2cccc3c(Br)c(O)ccc23)c(Cl)c1	0.3
COc1ccc2c(-c3c(Cl)cc(NC(=O)CC(=O)O)cc3Cl)cccc2c1C(C)C	0.3
O=C(O)Nc1cc(Cl)c(-c2cccc3c(-c4ccccc4)c(O)ccc23)c(Cl)c1	29

###

Target: Thyroid hormone receptor alpha (Homo sapiens, UniProt P10827)
Sequence (P10827 whole entry): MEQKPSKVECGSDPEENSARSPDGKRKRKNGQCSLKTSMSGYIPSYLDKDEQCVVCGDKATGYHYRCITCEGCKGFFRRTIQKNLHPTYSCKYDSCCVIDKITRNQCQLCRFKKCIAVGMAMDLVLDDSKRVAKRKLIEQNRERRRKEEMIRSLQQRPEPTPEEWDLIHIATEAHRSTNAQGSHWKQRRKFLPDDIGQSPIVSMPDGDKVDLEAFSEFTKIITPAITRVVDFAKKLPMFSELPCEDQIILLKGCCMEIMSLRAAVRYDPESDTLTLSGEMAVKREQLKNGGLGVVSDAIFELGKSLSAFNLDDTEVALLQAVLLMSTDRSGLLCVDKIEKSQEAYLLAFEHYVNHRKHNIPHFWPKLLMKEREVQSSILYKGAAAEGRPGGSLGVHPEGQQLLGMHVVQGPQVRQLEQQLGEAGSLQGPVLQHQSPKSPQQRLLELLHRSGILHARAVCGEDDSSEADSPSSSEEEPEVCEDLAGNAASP
Assay: Inhibitory concentration against cloned human thyroid hormone receptor alpha 1

smiles.text	IC50 (µM)
O=C(O)Cc1cc(Cl)c(-c2cccc3cc(O)ccc23)c(Cl)c1	1.54
